# Test system: Escherichia coli TOP10
# assayMethodText: shrunken log2 fold change of peptide-encoding DNA abundance (4.5 h post-induction vs induction); higher = less antimicrobial activity (less host growth inhibition)
# studyConditions: time post-induction: 4.5 h; library: site-saturation at positions 5, 18, 19, 20
measuredMetric: shrunken log2 fold change
Answers are plain numbers.

Solved cases (5 shown):
RRIRARPPRLPRPRPRPVNIPRP; -0.123
RRIRFRPPRLPRPRPRPNVPPRP; -0.0369
RRIRTRPPRLPRPRPRPECNPRP; 0.0232
RRIRKRPPRLPRPRPRPALVPRP; 0.623
RRIRGRPPRLPRPRPRPSWWPRP; 0.537

Parameters: items (list). Returns: shrunken log2 fold change for each item.
1. RRIRMRPPRLPRPRPRPPLLPRP
2. RRIRARPPRLPRPRPRPYYYPRP
3. RRIRKRPPRLPRPRPRPWYRPRP
4. RRIRTRPPRLPRPRPRPSPWPRP
5. RRIRHRPPRLPRPRPRPQFCPRP
6. RRIRPRPPRLPRPRPRPFWGPRP

1. 0.515
2. -0.602
3. 0.0232
4. -0.114
5. -0.208
6. -0.0925

Below are some sequences; for each one, tell me its shrunken log2 fold change.
1. RRIRPRPPRLPRPRPRPTRMPRP
2. RRIRSRPPRLPRPRPRPRMWPRP
3. RRIRVRPPRLPRPRPRPLTPPRP
4. RRIRARPPRLPRPRPRPWRWPRP
5. RRIRFRPPRLPRPRPRPSTKPRP

[0.479, 0.114, 0.758, 0.451, 0.0858]

Give shrunken log2 fold change for each of the items listed below.
1. RRIRLRPPRLPRPRPRPTPQPRP
2. RRIRERPPRLPRPRPRPKCQPRP
3. RRIRYRPPRLPRPRPRPEDKPRP
4. RRIRYRPPRLPRPRPRPFIKPRP
5. RRIRDRPPRLPRPRPRPKYPPRP
6. RRIRQRPPRLPRPRPRPYVLPRP
7. RRIRLRPPRLPRPRPRPNLNPRP

0.594
-0.178
-0.0222
-0.263
0.0118
-0.512
-0.716

----------
Can you tell me shrunken log2 fold change for the items I'm about to list?
# Test system: Escherichia coli TOP10
# assayMethodText: shrunken log2 fold change of peptide-encoding DNA abundance (4.5 h post-induction vs induction); higher = less antimicrobial activity (less host growth inhibition)
# studyConditions: time post-induction: 4.5 h; library: site-saturation at positions 5, 18, 19, 20
Give bare numbers.

Below are worked cases with known answers.
RRIRIRPPRLPRPRPRPGNVPRP; -0.0399
RRIRKRPPRLPRPRPRPENYPRP; -0.0275
RRIRNRPPRLPRPRPRPFGFPRP; -0.132
RRIRQRPPRLPRPRPRPLDKPRP; 2.19

Lab note: each sequence below needs its shrunken log2 fold change filled in.
1. RRIRDRPPRLPRPRPRPTWEPRP
2. RRIRSRPPRLPRPRPRPRGNPRP

[1.13, 0.0829]

----------
Field: shrunken log2 fold change. Provide a value for each of the sequences that follow.
# Test system: Escherichia coli TOP10
# assayMethodText: shrunken log2 fold change of peptide-encoding DNA abundance (4.5 h post-induction vs induction); higher = less antimicrobial activity (less host growth inhibition)
# studyConditions: time post-induction: 4.5 h; library: site-saturation at positions 5, 18, 19, 20
Numbers only.

RRIRLRPPRLPRPRPRPCGWPRP; 0.124
RRIRWRPPRLPRPRPRPEDWPRP; 0.947
RRIRTRPPRLPRPRPRPIQDPRP; -0.867
RRIRVRPPRLPRPRPRPSTWPRP; -0.184
RRIRSRPPRLPRPRPRPHYQPRP; -0.357
RRIRFRPPRLPRPRPRPQSDPRP; 0.0151
RRIRLRPPRLPRPRPRPDMWPRP; -0.0873
RRIRPRPPRLPRPRPRPMCNPRP; -0.075

Count: 2. Required value per item: shrunken log2 fold change.
1. RRIRMRPPRLPRPRPRPYRIPRP
2. RRIRKRPPRLPRPRPRPCPIPRP

[-0.0176, -0.212]

----------
# Test system: Escherichia coli TOP10
# assayMethodText: shrunken log2 fold change of peptide-encoding DNA abundance (4.5 h post-induction vs induction); higher = less antimicrobial activity (less host growth inhibition)
# studyConditions: time post-induction: 4.5 h; library: site-saturation at positions 5, 18, 19, 20
Mark F for shrunken log2 fold change values under -0.03, and T for everything at or above.

Before answering, review these 5 worked examples.
RRIRYRPPRLPRPRPRPTTKPRP; F
RRIRRRPPRLPRPRPRPDWWPRP; T
RRIRDRPPRLPRPRPRPCLDPRP; T
RRIRRRPPRLPRPRPRPPYPPRP; T
RRIRTRPPRLPRPRPRPQFTPRP; F

In plain terms: is recorded shrunken log2 fold change at least -0.03 for RRIRDRPPRLPRPRPRPMSNPRP ? T

Does the sequence RRIRVRPPRLPRPRPRPMIGPRP have recorded shrunken log2 fold change that is -0.03 or more? F

Hi, just wondering whether RRIRHRPPRLPRPRPRPWWVPRP shows shrunken log2 fold change of -0.03 or higher. F

----------
# Test system: Escherichia coli TOP10
# assayMethodText: shrunken log2 fold change of peptide-encoding DNA abundance (4.5 h post-induction vs induction); higher = less antimicrobial activity (less host growth inhibition)
# studyConditions: time post-induction: 4.5 h; library: site-saturation at positions 5, 18, 19, 20
Given measured shrunken log2 fold change, output Yes if it is greater than or equal to 0.04 and No if not.

Consider the following illustrative entries.
RRIRNRPPRLPRPRPRPEWNPRP; Yes
RRIRERPPRLPRPRPRPPACPRP; Yes
RRIRVRPPRLPRPRPRPMVMPRP; No

Dear colleague, could you confirm whether RRIRLRPPRLPRPRPRPQEGPRP has shrunken log2 fold change at or above 0.04? No

Is the recorded value of shrunken log2 fold change equal to or greater than 0.04 for this sequence? RRIRVRPPRLPRPRPRPRSPPRP Yes

Check the entry RRIRHRPPRLPRPRPRPENQPRP : does shrunken log2 fold change equal or exceed 0.04? No

I'd appreciate it if you could say whether RRIRFRPPRLPRPRPRPKCSPRP has shrunken log2 fold change at least equal to 0.04. No

Exam item: decide whether the reported shrunken log2 fold change for RRIRYRPPRLPRPRPRPQADPRP is at least 0.04. No

Kindly determine if shrunken log2 fold change recorded for RRIRWRPPRLPRPRPRPELLPRP is above or exactly 0.04. Yes

Item RRIRFRPPRLPRPRPRPTWFPRP with shrunken log2 fold change of 0.04 or above? Yes

// inclusive: shrunken log2 fold change at least 0.04? input: RRIRSRPPRLPRPRPRPIRQPRP No

Please check the record RRIRPRPPRLPRPRPRPYLWPRP and state if its shrunken log2 fold change is at or above 0.04. No

Quick check, shrunken log2 fold change >= 0.04? RRIRSRPPRLPRPRPRPCRIPRP No

Check if shrunken log2 fold change >= 0.04 (inclusive). Item: RRIRERPPRLPRPRPRPNFRPRP No

Has RRIRRRPPRLPRPRPRPFIIPRP a recorded shrunken log2 fold change greater than or equal to 0.04? No

----------
# System: Escherichia coli TOP10
# assayMethodText: shrunken log2 fold change of peptide-encoding DNA abundance (4.5 h post-induction vs induction); higher = less antimicrobial activity (less host growth inhibition)
# studyConditions: time post-induction: 4.5 h; library: site-saturation at positions 5, 18, 19, 20
measuredMetric: shrunken log2 fold change
Answers are plain numbers.

Hey, quick one: what's shrunken log2 fold change for each of these?
1. RRIRHRPPRLPRPRPRPPMWPRP
2. RRIRWRPPRLPRPRPRPLPNPRP
3. RRIRIRPPRLPRPRPRPVKAPRP
4. RRIRSRPPRLPRPRPRPTCLPRP
5. RRIRWRPPRLPRPRPRPEASPRP
6. RRIRVRPPRLPRPRPRPRGIPRP
7. RRIRMRPPRLPRPRPRPARAPRP
8. RRIRMRPPRLPRPRPRPTLCPRP

1: 1.04; 2: 0.783; 3: -0.0571; 4: -0.117; 5: 0.551; 6: 0.235; 7: 1.43; 8: 0.122

----------
# System: Escherichia coli TOP10;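 also: peptides expressed intracellularly from a pBAD plasmid library in pooled LB shake-flask culture, induced with 0.3% L-arabinose, DNA abundance read by NGS, three biological replicates, DESeq2 with apeglm shrinkage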
# assayMethodText: shrunken log2 fold change of peptide-encoding DNA abundance (4.5 h post-induction vs induction); higher = less antimicrobial activity (less host growth inhibition)
# studyConditions: time post-induction: 4.5 h; library: site-saturation at positions 5, 18, 19, 20
measuredMetric: shrunken log2 fold change
Answers are plain numbers.

Use these answered entries as a reference point.
RRIRPRPPRLPRPRPRPQIEPRP; -0.0699
RRIRGRPPRLPRPRPRPSQYPRP; -0.034
RRIRFRPPRLPRPRPRPWMWPRP; -0.0253
RRIRVRPPRLPRPRPRPFHLPRP; 0.0337
RRIRARPPRLPRPRPRPYFDPRP; -0.123

# return shrunken log2 fold change for each item in the list
1. RRIRDRPPRLPRPRPRPPMHPRP
2. RRIRPRPPRLPRPRPRPPCRPRP
3. RRIRERPPRLPRPRPRPPNYPRP

1. 0.319
2. 0.339
3. -0.201

# map each sequence to its shrunken log2 fold change
1. RRIRQRPPRLPRPRPRPMGGPRP
2. RRIRVRPPRLPRPRPRPECVPRP
3. RRIRDRPPRLPRPRPRPVRAPRP
4. RRIRQRPPRLPRPRPRPMSDPRP
5. RRIRYRPPRLPRPRPRPFYDPRP
6. RRIRQRPPRLPRPRPRPSENPRP
7. RRIRHRPPRLPRPRPRPAQWPRP

1: 0.0922; 2: 0.399; 3: 0.325; 4: -0.0194; 5: -0.708; 6: -0.0264; 7: 0.112
